The values you see were collected from the RNAGym collection of RNA variant scans (doi:10.7554/elife.80360).

B1: HDV Ribozyme (parent)
chain: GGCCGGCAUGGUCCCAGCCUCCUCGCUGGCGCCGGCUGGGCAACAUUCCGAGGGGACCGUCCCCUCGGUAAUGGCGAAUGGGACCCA

- Variants of: B1
- measurement.notes: self-cleavage, relative activity (ratio to wild type); higher = more cleavage; co-transcriptional
observable: self-cleavage
Give bare numbers.

Record excerpt, results attached:
Problem: Identify self-cleavage associated with the variant G28A C61A
Solution: 0.0791

Problem: Identify self-cleavage associated with the variant G10U C66A
Solution: 0.895

Problem: Identify self-cleavage associated with the variant G17A U47G
Solution: 0.657

Problem: Identify self-cleavage associated with the variant G28U A45C
Solution: 0.148

Problem: Identify self-cleavage associated with the variant C63U G67A
Solution: 0.933

Provide each entry's self-cleavage from the list below.
1. C58U U65G
2. G29C U69A
3. A56G C57G
4. G31U A87U
5. C18G G54A
6. U69A A78G

Solution:
1: 0.964; 2: 0.162; 3: 0.8; 4: 0.521; 5: 0.125; 6: 0.959

Provide each entry's self-cleavage from the list below.
1. G2U A77C
2. G11A G40U

Solution:
0.0674
0.458

Provide each entry's self-cleavage from the list below.
1. G59C C84G
2. A45G U79G
3. G2U G5U
4. C24U G25C
5. G50C U65A
6. G17C G59C

Solution:
0.831
0.317
0.0163
0.125
0.919
0.243
